- testProtocol: self-splicing fitness, log relative to wild type (ln ratio); higher = more splicing; Tetrahymena group I intron in knt gene, E. coli kanamycin selection, DiMSum; sequences stand for … in CUCUCU…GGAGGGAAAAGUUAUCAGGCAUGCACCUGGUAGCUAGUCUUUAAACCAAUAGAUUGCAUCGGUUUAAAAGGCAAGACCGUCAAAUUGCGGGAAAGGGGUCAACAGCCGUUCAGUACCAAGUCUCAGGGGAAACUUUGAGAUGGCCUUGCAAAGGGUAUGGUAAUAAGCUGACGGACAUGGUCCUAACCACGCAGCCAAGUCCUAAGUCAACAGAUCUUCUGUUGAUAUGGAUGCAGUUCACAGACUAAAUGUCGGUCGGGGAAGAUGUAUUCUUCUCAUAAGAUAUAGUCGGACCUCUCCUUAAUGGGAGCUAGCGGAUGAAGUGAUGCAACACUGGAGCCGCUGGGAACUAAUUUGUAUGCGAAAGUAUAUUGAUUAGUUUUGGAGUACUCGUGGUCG;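 also: selection with 25 µg/mL kanamycin versus none on LB agar overnight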
- experimentalContext: 30 °C
Assign Y to entries whose self-splicing fitness (ln) meets or exceeds -2; assign N to the rest.

{"residueString": "CCGGAGCAAUAUUACGGACA", "cat": "N"}
{"residueString": "UUGCAGCAAUAUUACGGUCA", "cat": "Y"}
{"residueString": "ACAUAGCAAUAUUACGCUUC", "cat": "N"}
{"residueString": "CAGUAGCAAUAUUACGGCUA", "cat": "Y"}
{"residueString": "AUAGAGCAAUAUUACGUGUG", "cat": "Y"}
{"residueString": "UCGGAGCAAUAUUACGGCUG", "cat": "N"}
{"residueString": "GCCUAGCAAUAUUACGUCAU", "cat": "N"}
{"residueString": "UCUUAGCAAUAUUACGUGGA", "cat": "N"}
{"residueString": "UCGGAGCAAUAUUACGUUGU", "cat": "N"}
{"residueString": "CGGCAGCAAUAUUACGCGCC", "cat": "N"}
{"residueString": "UCUUAGCAAUAUUACGCGAU", "cat": "N"}
{"residueString": "UUAAAGCAAUAUUACGGAGU", "cat": "N"}
{"residueString": "AACGAGCAAUAUUACGCGUG", "cat": "Y"}
{"residueString": "UAAAAGCAAUAUUACGACCA", "cat": "Y"}
{"residueString": "UCGCAGCAAUAUUACGUUAG", "cat": "N"}
{"residueString": "UACGAGCAAUAUUACGGAGG", "cat": "N"}

---

- testProtocol: self-splicing fitness, log relative to wild type (ln ratio); higher = more splicing; Tetrahymena group I intron in knt gene, E. coli kanamycin selection, DiMSum; sequences stand for … in CUCUCU…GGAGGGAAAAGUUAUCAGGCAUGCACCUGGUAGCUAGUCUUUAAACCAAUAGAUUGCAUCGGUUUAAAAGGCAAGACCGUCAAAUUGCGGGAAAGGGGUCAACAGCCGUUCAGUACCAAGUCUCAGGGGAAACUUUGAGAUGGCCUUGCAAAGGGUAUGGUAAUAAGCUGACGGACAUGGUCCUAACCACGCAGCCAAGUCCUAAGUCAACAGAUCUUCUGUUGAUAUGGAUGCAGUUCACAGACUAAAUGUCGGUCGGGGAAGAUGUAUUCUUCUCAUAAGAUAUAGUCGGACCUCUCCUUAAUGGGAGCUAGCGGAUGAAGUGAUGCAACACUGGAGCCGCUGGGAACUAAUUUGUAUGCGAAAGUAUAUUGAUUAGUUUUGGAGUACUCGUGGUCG
- experimentalContext: 37 °C
Listed below: self-splicing fitness (ln) values for each entry.
metric: self-splicing fitness (ln)

{"residueString": "AAGAAGCAAUAUUACGACCA", "metric": "self-splicing fitness (ln)", "observedMeasurement": -0.795}
{"residueString": "CAAUAGCAAUAUUACGGGAC", "metric": "self-splicing fitness (ln)", "observedMeasurement": -2.63}
{"residueString": "GGCGAGCAAUAUUACGUUUA", "metric": "self-splicing fitness (ln)", "observedMeasurement": -0.372}
{"residueString": "GCUUAGCAAUAUUACGCAUA", "metric": "self-splicing fitness (ln)", "observedMeasurement": -0.612}
{"residueString": "GAUCAGCAAUAUUACGGACU", "metric": "self-splicing fitness (ln)", "observedMeasurement": -0.894}
{"residueString": "AUAGAGCAAUAUUACGGUAU", "metric": "self-splicing fitness (ln)", "observedMeasurement": -0.0895}
{"residueString": "UAAUAGCAAUAUUACGUCCU", "metric": "self-splicing fitness (ln)", "observedMeasurement": -0.798}
{"residueString": "UAACAGCAAUAUUACGAAAA", "metric": "self-splicing fitness (ln)", "observedMeasurement": -1.18}
{"residueString": "AUGUAGCAAUAUUACGAGGA", "metric": "self-splicing fitness (ln)", "observedMeasurement": -2.11}
{"residueString": "UAGGAGCAAUAUUACGCGAC", "metric": "self-splicing fitness (ln)", "observedMeasurement": -1.74}
{"residueString": "GGGUAGCAAUAUUACGACGC", "metric": "self-splicing fitness (ln)", "observedMeasurement": 0.108}
{"residueString": "CACGAGCAAUAUUACGUUUA", "metric": "self-splicing fitness (ln)", "observedMeasurement": -2.52}
{"residueString": "UGCUAGCAAUAUUACGUCAA", "metric": "self-splicing fitness (ln)", "observedMeasurement": -1.13}
{"residueString": "CUCGAGCAAUAUUACGCGUU", "metric": "self-splicing fitness (ln)", "observedMeasurement": -0.305}
{"residueString": "UGCCAGCAAUAUUACGAGAA", "metric": "self-splicing fitness (ln)", "observedMeasurement": -0.955}
{"residueString": "GCAAAGCAAUAUUACGGAAU", "metric": "self-splicing fitness (ln)", "observedMeasurement": -0.938}

---

- testProtocol: self-splicing fitness, log relative to wild type (ln ratio); higher = more splicing; Tetrahymena group I intron in knt gene, E. coli kanamycin selection, DiMSum; sequences stand for … in CUCUCU…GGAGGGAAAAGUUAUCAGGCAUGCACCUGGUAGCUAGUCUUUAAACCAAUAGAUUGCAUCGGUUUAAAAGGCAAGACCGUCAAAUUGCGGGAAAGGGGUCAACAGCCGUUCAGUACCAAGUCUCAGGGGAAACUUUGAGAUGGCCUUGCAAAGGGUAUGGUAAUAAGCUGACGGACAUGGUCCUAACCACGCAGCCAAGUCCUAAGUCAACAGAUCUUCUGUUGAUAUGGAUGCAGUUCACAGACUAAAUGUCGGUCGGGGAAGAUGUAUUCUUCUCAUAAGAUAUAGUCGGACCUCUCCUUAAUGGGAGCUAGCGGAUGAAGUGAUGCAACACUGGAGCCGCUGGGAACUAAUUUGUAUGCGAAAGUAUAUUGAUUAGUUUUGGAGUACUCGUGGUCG
- experimentalContext: 37 °C
Listed below: self-splicing fitness (ln) values for each entry.

{"residueString": "GAACAGCAAUAUUACGCCGU", "self-splicing fitness (ln)": -1.61}
{"residueString": "GGGCAGCAAUAUUACGCCAC", "self-splicing fitness (ln)": -1.22}
{"residueString": "CUUAAGCAAUAUUACGGCCG", "self-splicing fitness (ln)": -0.38}
{"residueString": "UAGCAGCAAUAUUACGCAAU", "self-splicing fitness (ln)": -1.68}
{"residueString": "AAUAAGCAAUAUUACGUGGA", "self-splicing fitness (ln)": -2.42}
{"residueString": "CCCAAGCAAUAUUACGGUUA", "self-splicing fitness (ln)": -2.38}
{"residueString": "GGGGAGCAAUAUUACGUAUU", "self-splicing fitness (ln)": -3.33}
{"residueString": "AAGUAGCAAUAUUACGCCAU", "self-splicing fitness (ln)": -0.903}
{"residueString": "GCGUAGCAAUAUUACGUGAC", "self-splicing fitness (ln)": -1.15}
{"residueString": "UACCAGCAAUAUUACGCACU", "self-splicing fitness (ln)": 0.393}
{"residueString": "UGGUAGCAAUAUUACGCGGG", "self-splicing fitness (ln)": -2.47}
{"residueString": "CUACAGCAAUAUUACGUUCU", "self-splicing fitness (ln)": -2.42}
{"residueString": "UAAAAGCAAUAUUACGACCA", "self-splicing fitness (ln)": 0.711}
{"residueString": "GAAGAGCAAUAUUACGCGUG", "self-splicing fitness (ln)": -1.32}
{"residueString": "CUUAAGCAAUAUUACGCUGU", "self-splicing fitness (ln)": -2.3}
{"residueString": "CAGUAGCAAUAUUACGAUAU", "self-splicing fitness (ln)": -1.88}
{"residueString": "GACCAGCAAUAUUACGAUGU", "self-splicing fitness (ln)": 0.0308}
{"residueString": "CGUGAGCAAUAUUACGGAUC", "self-splicing fitness (ln)": -1.88}
{"residueString": "UUUCAGCAAUAUUACGGUGA", "self-splicing fitness (ln)": -0.395}
{"residueString": "GAUCAGCAAUAUUACGUUGC", "self-splicing fitness (ln)": -3.1}
{"residueString": "CAUAAGCAAUAUUACGGGUC", "self-splicing fitness (ln)": -2.97}
{"residueString": "CAGGAGCAAUAUUACGCUAA", "self-splicing fitness (ln)": -1.19}
{"residueString": "UAUAAGCAAUAUUACGUGCA", "self-splicing fitness (ln)": -0.0529}
{"residueString": "CUGAAGCAAUAUUACGGUCA", "self-splicing fitness (ln)": -0.796}
{"residueString": "GUUGAGCAAUAUUACGAUGA", "self-splicing fitness (ln)": -2.27}
{"residueString": "GCGUAGCAAUAUUACGUUCC", "self-splicing fitness (ln)": -2.36}
{"residueString": "CCUGAGCAAUAUUACGCACA", "self-splicing fitness (ln)": -1.6}
{"residueString": "GAAGAGCAAUAUUACGAAUA", "self-splicing fitness (ln)": -1.63}
{"residueString": "CCACAGCAAUAUUACGUUUC", "self-splicing fitness (ln)": -2.44}
{"residueString": "GGGUAGCAAUAUUACGCGAG", "self-splicing fitness (ln)": -0.555}
{"residueString": "GCGCAGCAAUAUUACGUACG", "self-splicing fitness (ln)": -1.09}
{"residueString": "UCACAGCAAUAUUACGGUAG", "self-splicing fitness (ln)": -0.311}
{"residueString": "ACAAAGCAAUAUUACGACCU", "self-splicing fitness (ln)": 0.311}
{"residueString": "ACUAAGCAAUAUUACGGCAA", "self-splicing fitness (ln)": -0.133}

Hello, the source for this data is the supplement of paper PMC7877785, in case you need it.
